Source: patent US12240827B2

- SYSTEM: hERG (Homo sapiens, UniProt Q12809)
- Construct: stably transfected with full length hERG cDNA
- Sequence (Q12809 whole entry): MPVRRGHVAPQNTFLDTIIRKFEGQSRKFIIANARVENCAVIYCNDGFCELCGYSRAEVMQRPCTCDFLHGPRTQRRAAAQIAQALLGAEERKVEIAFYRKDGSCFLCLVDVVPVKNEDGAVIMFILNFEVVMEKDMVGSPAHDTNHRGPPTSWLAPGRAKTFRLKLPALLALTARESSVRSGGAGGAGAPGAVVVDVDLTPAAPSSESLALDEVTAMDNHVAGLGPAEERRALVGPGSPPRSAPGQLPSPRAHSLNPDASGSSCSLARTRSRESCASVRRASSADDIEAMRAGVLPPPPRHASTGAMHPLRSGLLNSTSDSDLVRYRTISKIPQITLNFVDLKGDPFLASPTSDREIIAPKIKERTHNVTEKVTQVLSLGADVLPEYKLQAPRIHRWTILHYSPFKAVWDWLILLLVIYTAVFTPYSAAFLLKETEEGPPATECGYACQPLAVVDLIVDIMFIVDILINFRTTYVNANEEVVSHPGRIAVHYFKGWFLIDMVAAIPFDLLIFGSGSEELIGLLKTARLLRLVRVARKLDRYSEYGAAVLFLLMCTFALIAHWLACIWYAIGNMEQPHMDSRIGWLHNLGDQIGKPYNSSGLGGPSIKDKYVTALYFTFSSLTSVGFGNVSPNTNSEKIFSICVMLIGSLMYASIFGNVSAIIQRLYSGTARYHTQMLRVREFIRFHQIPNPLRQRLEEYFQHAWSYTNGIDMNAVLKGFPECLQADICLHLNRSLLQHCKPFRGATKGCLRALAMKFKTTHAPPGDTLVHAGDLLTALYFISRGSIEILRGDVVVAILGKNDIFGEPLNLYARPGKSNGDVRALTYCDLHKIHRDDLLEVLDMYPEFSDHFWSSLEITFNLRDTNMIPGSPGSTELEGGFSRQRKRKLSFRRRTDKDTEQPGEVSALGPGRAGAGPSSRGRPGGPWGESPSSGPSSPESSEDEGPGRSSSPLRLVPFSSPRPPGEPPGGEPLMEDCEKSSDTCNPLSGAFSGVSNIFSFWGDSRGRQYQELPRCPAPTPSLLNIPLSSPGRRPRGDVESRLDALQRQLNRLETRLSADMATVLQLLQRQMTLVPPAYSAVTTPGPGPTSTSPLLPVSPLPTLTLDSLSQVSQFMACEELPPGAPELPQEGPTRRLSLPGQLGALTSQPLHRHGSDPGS
- MEASUREMENT_NOTES: hERG in-vitro assay, IonWorks Barracuda population patch clamp
- SETUP_CONDITIONS: hERG/HEK293 cells; hERG current block, 5 minutes exposure
Reported IC50 values follow for various compounds
Respond numerically; units are µM and should not be typed.

Cc1cnc(C2CCN(C(=O)c3ccc(-c4n[nH]c5ccccc45)cc3)CC2)[nH]1 [Example 6]	35.5

Form field: reported IC50 of O=C(c1ccc(-c2cc3ccccc3[nH]2)cc1)N1CCC(c2ncc[nH]2)CC1 [Example 30] 11
